Known IC50 of a selection of molecules
Biological target: PHD2 (Homo sapiens, UniProt Q9GZT9)
Construct: FLAG-tagged full length PHD2 expressed in and purified from baculovirus-infected Sf9 cells; FLAG; made in house; host or cells: baculovirus-infected Sf9 cells
Sequence (Q9GZT9 whole entry): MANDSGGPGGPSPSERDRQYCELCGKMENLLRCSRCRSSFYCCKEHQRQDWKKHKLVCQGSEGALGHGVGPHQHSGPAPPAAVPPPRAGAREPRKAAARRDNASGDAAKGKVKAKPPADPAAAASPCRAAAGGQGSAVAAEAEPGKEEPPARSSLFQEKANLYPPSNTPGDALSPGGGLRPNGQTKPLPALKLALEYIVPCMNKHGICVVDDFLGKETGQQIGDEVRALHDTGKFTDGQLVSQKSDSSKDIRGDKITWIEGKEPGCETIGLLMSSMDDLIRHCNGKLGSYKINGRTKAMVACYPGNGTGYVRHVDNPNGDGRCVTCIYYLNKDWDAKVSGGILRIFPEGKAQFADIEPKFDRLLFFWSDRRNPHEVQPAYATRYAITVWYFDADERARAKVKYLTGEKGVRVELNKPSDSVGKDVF
Assay: PHD2 / HIF-1α peptide hydroxylation assay, time resolved fluorescence (VHL complex detection)
Format: biochemical
Settings: FLAG-tagged full length PHD2; 0.2 μM 2-oxoglutarate, 0.5 μM HIF-1α peptide; read-out: PHD2 Activity (PHD2 binding activity expressed as IC50 (nM))
Counter-ions that a name gives are not always drawn.

These solved cases illustrate the format of a correct answer.
molecule	readout_value
O=C(NC(c1ccccc1)c1ccccn1)c1cnc(-n2cccn2)nc1O (centres unmarked) [Example 125, trifluoroacetate]	≤ 10 nM
O=C(NC1CCCCC1)c1cnc(-c2cccnn2)nc1O	10 to 100 nM
COc1ccc(C(NC(=O)c2cnc(-c3cccnn3)nc2O)c2ccc(C#N)cc2)cc1 (single isomer, unassigned) [Example 151]	≤ 10 nM
O=C(NCc1ccc(C(F)(F)F)cc1F)c1cnc(-n2cccn2)nc1O	10 to 100 nM
O=C(NCc1ccc(F)cc1)c1cnc(-c2ncccn2)nc1O	1000 to 10000 nM
C[C@H](NC(=O)c1cnc(-c2cccnn2)nc1O)c1ccc(Br)cc1	≤ 10 nM
O=C(NCc1ccc(-c2ccc(F)cc2)nc1)c1cnc(-n2cccn2)nc1O	≤ 10 nM

For the next question, use this molecule.
Just so you know, measured IC50 for COc1cccc([C@H](C)NC(=O)c2cnc(-n3cccn3)nc2O)c1 came out at ≤ 10 nM

###

Known IC50 of a selection of molecules
Biological target: PHD2 (Homo sapiens, UniProt Q9GZT9)
Construct: FLAG-tagged full length PHD2 expressed in and purified from baculovirus-infected Sf9 cells; FLAG; made in house; host or cells: baculovirus-infected Sf9 cells
Assay: PHD2 / HIF-1α peptide hydroxylation assay, time resolved fluorescence (VHL complex detection)
Assay type: biochemical
Conditions: FLAG-tagged full length PHD2; 0.2 μM 2-oxoglutarate, 0.5 μM HIF-1α peptide; read-out: PHD2 Activity (PHD2 binding activity expressed as IC50 (nM))
Structures can show the parent of a compound that is named as a salt.

These solved cases illustrate the format of a correct answer.
molecule	IC50
COc1ccc(C(NC(=O)c2cnc(-c3cccnn3)nc2O)c2ccc(SC)cc2)cc1 (stereo not drawn)	≤ 10 nM
O=C(NC(c1ccc(O)cc1)c1ccc(O)cc1)c1cnc(-c2cccnn2)nc1O	≤ 10 nM
CC(C)(O)[C@H](NC(=O)c1cnc(-n2cccn2)nc1O)c1ccccc1	≤ 10 nM
CC(C)(NC(=O)c1cnc(-c2cc(Br)ccn2)nc1O)c1ccccc1	10 to 100 nM
O=C(N[C@H]1CCc2ccccc21)c1cnc(-n2cccn2)nc1O	10 to 100 nM

Just so you know, measured IC50 for CC(NC(=O)c1cnc(-c2ccccn2)nc1O)c1ccc(F)cc1 (stereo not drawn) came out at 10 to 100 nM

Just so you know, measured IC50 for C[C@H](NC(=O)c1cnc(-n2cccn2)nc1O)C1CCCCC1 came out at 10 to 100 nM

Just so you know, measured IC50 for O=C(c1cnc(-n2cccn2)nc1O)N1CCCCC1 came out at 1000 to 10000 nM

Just so you know, measured IC50 for O=C(NN1CCCCC1)c1cnc(-n2cccn2)nc1O [Example 80, trifluoroacetate] came out at 10 to 100 nM

###

Biological target: PHD2 (Homo sapiens)
Construct: FLAG-tagged full length PHD2 expressed in and purified from baculovirus-infected Sf9 cells; FLAG; made in house; host or cells: baculovirus-infected Sf9 cells
Test: PHD2 / HIF-1α peptide hydroxylation assay, time resolved fluorescence (VHL complex detection)
Type: biochemical
Details: FLAG-tagged full length PHD2; 0.2 μM 2-oxoglutarate, 0.5 μM HIF-1α peptide; read-out: PHD2 Activity (PHD2 binding activity expressed as IC50 (nM))
measure: IC50

Lab note: compound Cc1cnc(CNC(=O)c2cnc(-n3cccn3)nc2O)cn1 tested on PHD2 (Homo sapiens); recorded IC50 was 100 to 1000 nM

Lab note: compound O=C(NC(c1ccccc1)c1ccc(C(F)(F)F)nc1)c1cnc(-n2cccn2)nc1O (single isomer, unassigned) [Example 143] tested on PHD2 (Homo sapiens); recorded IC50 was ≤ 10 nM

Lab note: compound COc1ccc(C(NC(=O)c2cnc(-c3cccnn3)nc2O)c2ccc(C)nc2)cc1 (single isomer, unassigned) [Example 146] tested on PHD2 (Homo sapiens); recorded IC50 was ≤ 10 nM

###

Target: PHD2 (Homo sapiens, UniProt Q9GZT9)
Construct: FLAG-tagged full length PHD2 expressed in and purified from baculovirus-infected Sf9 cells; FLAG; made in house; host or cells: baculovirus-infected Sf9 cells
Assay: PHD2 / HIF-1α peptide hydroxylation assay, time resolved fluorescence (VHL complex detection)
Format: biochemical
Details: FLAG-tagged full length PHD2; 0.2 μM 2-oxoglutarate, 0.5 μM HIF-1α peptide; read-out: PHD2 Activity (PHD2 binding activity expressed as IC50 (nM))
Structures can show the parent of a compound that is named as a salt.
Known IC50 of a selection of compounds

These solved cases illustrate the format of a correct answer.
compound	IC50
O=C(NCc1ccc(C(F)(F)F)cc1)c1cnc(-c2cnccn2)nc1O [Example 20]	10 to 100 nM
CC(C)CC(NC(=O)c1cnc(-c2cccnn2)nc1O)c1ccc(C#N)cc1 (single isomer, unassigned) [Example 158]	≤ 10 nM
COCc1ccc(C(NC(=O)c2cnc(-c3cccnn3)nc2O)c2ccc(COC)cc2)cc1 [Example 184]	≤ 10 nM

Just so you know, measured IC50 for COc1ccc(CC(NC(=O)c2cnc(-c3cccnn3)nc2O)c2ccc(C#N)cc2)cc1 (single isomer, unassigned) [Example 161] came out at ≤ 10 nM

Just so you know, measured IC50 for CC(NC(=O)c1cnc(-n2cccn2)nc1O)c1ccc(C(F)(F)F)nc1 (single isomer, unassigned) [Example 141] came out at ≤ 10 nM

Just so you know, measured IC50 for CC(C)CC(NC(=O)c1cnc(-c2cccnn2)nc1O)c1ccc(C#N)cc1 (single isomer, unassigned) [Example 159] came out at 10 to 100 nM

Just so you know, measured IC50 for C[C@H](NC(=O)c1cnc(-c2cccnn2)nc1O)c1ccc(-c2ccc(F)nc2)cc1 [Example 186, trifluoroacetate] came out at ≤ 10 nM

###

Target: PHD2 (Homo sapiens)
Construct: FLAG-tagged full length PHD2 expressed in and purified from baculovirus-infected Sf9 cells; FLAG; made in house; host or cells: baculovirus-infected Sf9 cells
Test: PHD2 / HIF-1α peptide hydroxylation assay, time resolved fluorescence (VHL complex detection)
Type: biochemical
Settings: FLAG-tagged full length PHD2; 0.2 μM 2-oxoglutarate, 0.5 μM HIF-1α peptide; read-out: PHD2 Activity (PHD2 binding activity expressed as IC50 (nM))
Procedure: To each well of a 96-well plate was added 1 μL of test compound in DMSO and 20 μl of assay buffer (50 mM Tris pH 7.4/0.01% Tween-20/0.1 mg/ml bovine serum albumin/10 μM ferrous sulfate/1 mM sodium ascorbate/20 μg/ml catalase) containing 0.15 μg/ml FLAG-tagged full length PHD2 expressed in and purified from baculovirus-infected Sf9 cells. […]
measure: IC50

These solved cases illustrate the format of a correct answer.
compound	measured_on	IC50
O=C(NCc1ccc(Oc2ccc(F)cc2)cc1)c1cnc(-n2cccn2)nc1O [Example 99]	PHD2 (Homo sapiens)	≤ 10 nM
O=C(NCc1cc(C(F)(F)F)cc(C(F)(F)F)c1)c1cnc(-n2cccn2)nc1O [Example 65]	PHD2 (Homo sapiens)	100 to 1000 nM
CC(C)(NC(=O)c1cnc(-n2cccn2)nc1O)C(=O)O [Example 188]	PHD2 (Homo sapiens)	100 to 1000 nM
COc1ccc(C(NC(=O)c2cnc(-c3cccnn3)nc2O)c2ccc(Cl)nc2)cc1 (centres unmarked) [Example 169]	PHD2 (Homo sapiens)	≤ 10 nM

Just so you know, measured IC50 for CC[C@H](NC(=O)c1cnc(-n2cccn2)nc1O)c1ccccc1 [Example 48] came out at ≤ 10 nM

###

Target: PHD2 (Homo sapiens, UniProt Q9GZT9)
Construct: FLAG-tagged full length PHD2 expressed in and purified from baculovirus-infected Sf9 cells; FLAG; made in house; host or cells: baculovirus-infected Sf9 cells
Assay: PHD2 / HIF-1α peptide hydroxylation assay, time resolved fluorescence (VHL complex detection)
Format: biochemical
Details: FLAG-tagged full length PHD2; 0.2 μM 2-oxoglutarate, 0.5 μM HIF-1α peptide; read-out: PHD2 Activity (PHD2 binding activity expressed as IC50 (nM))
Description: To each well of a 96-well plate was added 1 μL of test compound in DMSO and 20 μl of assay buffer (50 mM Tris pH 7.4/0.01% Tween-20/0.1 mg/ml bovine serum albumin/10 μM ferrous sulfate/1 mM sodium ascorbate/20 μg/ml catalase) containing 0.15 μg/ml FLAG-tagged full length PHD2 expressed in and purified from baculovirus-infected Sf9 cells. […]
Structures can show the parent of a compound that is named as a salt.
Known IC50 of a selection of compounds

These solved cases illustrate the format of a correct answer.
compound	measured_on	IC50
CC(C)(NC(=O)c1cnc(-n2cccn2)nc1O)c1ccc(F)c(F)c1 [Example 89]	PHD2 (Homo sapiens, UniProt Q9GZT9)	≤ 10 nM
CC(C)(NC(=O)c1cnc(-n2cccn2)nc1O)c1ccc(F)cc1 [Example 73]	PHD2 (Homo sapiens, UniProt Q9GZT9)	≤ 10 nM
COc1ccc(C(NC(=O)c2cnc(-c3cccnn3)nc2O)c2cccc(C)n2)c(OC)c1 (centres unmarked) [Example 115]	PHD2 (Homo sapiens, UniProt Q9GZT9)	≤ 10 nM

Lab note: compound O=C(NC1(c2ccccc2)CCCCC1)c1cnc(-n2cccn2)nc1O [Example 94] tested on PHD2 (Homo sapiens, UniProt Q9GZT9); recorded IC50 was ≤ 10 nM

Lab note: compound O=C(NCc1ccc(-c2cccc(F)c2)nc1)c1cnc(-n2cccn2)nc1O [Example 107, trifluoroacetate] tested on PHD2 (Homo sapiens, UniProt Q9GZT9); recorded IC50 was ≤ 10 nM

Lab note: compound O=C(NCc1nc2ccccc2s1)c1cnc(-n2cccn2)nc1O [Example 55] tested on PHD2 (Homo sapiens, UniProt Q9GZT9); recorded IC50 was ≤ 10 nM

Lab note: compound CC[C@H](NC(=O)c1cnc(-c2csc(C)n2)nc1O)c1ccccc1 [Example 35] tested on PHD2 (Homo sapiens, UniProt Q9GZT9); recorded IC50 was 10 to 100 nM

Lab note: compound O=C(NCc1ccc(F)cc1)c1cnc(-c2cnccn2)nc1O [Example 18] tested on PHD2 (Homo sapiens, UniProt Q9GZT9); recorded IC50 was 100 to 1000 nM

Lab note: compound C[C@H](NC(=O)c1cnc(-n2cccn2)nc1O)c1ccc(Br)cc1 [Example 91] tested on PHD2 (Homo sapiens, UniProt Q9GZT9); recorded IC50 was ≤ 10 nM

Lab note: compound COc1ccc(C(NC(=O)c2cnc(-c3cccnn3)nc2O)c2ccc(C)nc2)cc1 (centres unmarked) [Example 114] tested on PHD2 (Homo sapiens, UniProt Q9GZT9); recorded IC50 was ≤ 10 nM

Lab note: compound O=C(NCc1ccc(Oc2ccccc2)cc1)c1cnc(-n2cccn2)nc1O [Example 93] tested on PHD2 (Homo sapiens, UniProt Q9GZT9); recorded IC50 was ≤ 10 nM

Lab note: compound O=C(NC1(c2ccccc2)CCCCC1)c1cnc(-c2cccnn2)nc1O [Example 27] tested on PHD2 (Homo sapiens, UniProt Q9GZT9); recorded IC50 was ≤ 10 nM

Lab note: compound COc1ccc(C(NC(=O)c2cnc(-n3cccn3)nc2O)c2ccc(SC)cc2)cc1 (centres unmarked) [Example 168] tested on PHD2 (Homo sapiens, UniProt Q9GZT9); recorded IC50 was ≤ 10 nM
